- Test system: HT29 colon
- Assay: NCI-60 one-dose screen, 48 h (100 = growth as untreated, 0 = no growth, -100 = all killed)
- Condition Parameters: 10 µM unless noted
This is part of a sample that, as a whole, favours compounds with a hit. Of some 83,000 tested, about 20% had one in any assay.

Compound | growth [%]
Cc1ccc(N=Nc2c(N)nn(-c3ccccc3)c2N)cc1 | 11.7
CCCCCCCC/C=C\CCCCCCCCOc1ccc(CC(=O)NCC[N+](C)(C)C)cc1 | 24.5
Cc1cscc(C)c1=S | 19.5
CCc1cccc(Sc2cc(C(=O)N3Cc4ccc(OCCN(C)C)cc4C3)ccc2O)c1 | 103
Cc1ccc(-c2csc(NC(=O)N3CCN(c4cc5c(cc4F)c(=O)c(C(=O)O)cn5C4CC4)CC3)n2)cc1 | 4.65
CN(C)c1ccc(/C=C2/C=C(c3ccccc3)OC2=O)cc1 | 94.7
O=C1NC(=Nc2ccc(O)cc2)S/C1=C\c1cccs1 | 89.7
CCOC(=O)c1cn2ncnc(Oc3ccc(NC(=O)NC4CC4)c(F)c3)c2c1C | 110
C#CC#CC#CC#CC#CC#CC#CC#CC[C@H]1OC[C@@H](COC(=O)O[C@@H](C(=O)O[C@H]2C[C@@]3(O)[C@@H](OC(=O)c4ccccc4)[C@@H]4[C@]5(OC(C)=O)CO[C@@H]5C[C@H](O)[C@@]4(C)C(=O)[C@H](OC(C)=O)C(=C2C)C3(C)C)[C@@H](NC(=O)c2ccccc2)c2ccccc2)O1 | 7.9
CCN(CC)S(=O)(=O)c1ccc(S(=O)(=O)N2CCC[C@@H](C(=O)N3CCN(C(=O)OC(C)(C)C)CC3)C2)cc1 | 91.5
COc1cc(/C=N/Nc2ccccc2F)cc(OC)c1OC | 93.6
CCN1C(=O)N(CC)C2C1NN=c1s/c(=C\c3ccccc3Br)c(=O)n12 (stereo not drawn) | 4.72
Cc1nc2sc(C(=O)Nc3ccccc3)c(N)c2cc1C(=O)/C=C/c1ccccc1 | -63.9
COc1cc(C2Cc3ncccc3-c3[nH]c(=O)c4cccnc4c32)cc(OC)c1OC (stereo not drawn) | 0.572
C=C1C(=O)O[C@H]2[C@H]1CC/C(CNC(=O)c1cc3ccccc3[nH]1)=C\CC[C@@]1(C)O[C@@H]21 | -59.7
COc1ccc(NC(=O)c2cccc(C3CCc4c(cc(OC)c(OC)c4OC)O3)c2)cc1 (stereo not drawn) | 6.06
O=C(/C=C/C12c3ccccc3C(c3ccccc31)C1C(=O)NC(=O)C12)c1ccccn1 (stereo not drawn) | 0.981
O=C(Nc1nc(C(=O)N2CCN(C(c3ccccc3)c3ccccc3)CC2)cs1)c1ccc(NC2CCCCC2)c([N+](=O)[O-])c1 | 86.1
CCCCNC1=C(OCC)C(=O)c2ccccc2C1=O | 123
C=CCn1c(SCC(=O)Nc2ccc(C(=O)/C=C/c3cc(OC)c(OC)c(OC)c3)cc2)nnc1-c1cc(-c2ccc(OC)cc2)nc2ccccc12 | 101
COc1cc2cc(NCc3ccc(OC(F)F)cc3)nc(C)c2cc1OC | 25.7
COc1cc(C2=NN(C(C)=O)C(c3ccc(N(C)C)cc3)C2)cc(OC)c1OC (stereo not drawn) | 108
CCCn1c(=S)sc2c1nc(C)n1c(Nc3ccccc3)nnc21 | 87.5
CCc1ccc(CCC(=O)Nc2ncc(Cc3ccc(Cl)cc3)s2)o1 | 8.1
CN1CCN(CCOc2ccc(-c3cnc4c(-c5ccc(C(F)(F)F)cc5)cnn4c3)cc2)CC1 | -15.5
c1ccc(CCc2ccccc2-c2cc(-c3ccccc3)on2)cc1 | 68.2
COc1ccc(/C=C/C(=O)c2ccc(Nc3nc(Nc4ccc(F)cc4)nc(Nc4ccc(Cl)cc4)n3)cc2)cc1 | 94.1
C=CC(=O)NCCOc1cccc(Nc2cc(NCCCNC(=O)C3CCC3)c(Br)cn2)c1 | -15.2
CCN(CC)CCOc1ccc(Nc2ncc3cc(-c4ccc(O)cc4)c(=O)n(C)c3n2)cc1 | 14.8
N/C(=N\c1nc2ccccc2s1)NC(=NC1CCCCC1)NC1CCCCC1 | 6.19
CC1COCC(C)N1C1=C(Cl)C(=O)c2ccccc2C1=O (stereo not drawn) | 89.7
CCn1cc(CNc2ccc(C(=O)Nc3cc4cc(OC)c(OC)cc4c(C)n3)cc2)c(C)n1 | 54.1
CC(C)=CC(=O)N[C@@H]1CC2CCC3C(CC[C@@]4(C)C3CC[C@@H]4C(C)N(C)C)[C@@]2(C)C[C@@H]1O (stereo partly drawn) | -4.96
